Reported IC50 values for a set of binders
Target: T1, FLAG-Tagged hAng2 (human, UniProt O15123 19-496, limits assumed)
T1 construct: also called FLAG-Ang2; non-mutated Ang2
T1 sequence: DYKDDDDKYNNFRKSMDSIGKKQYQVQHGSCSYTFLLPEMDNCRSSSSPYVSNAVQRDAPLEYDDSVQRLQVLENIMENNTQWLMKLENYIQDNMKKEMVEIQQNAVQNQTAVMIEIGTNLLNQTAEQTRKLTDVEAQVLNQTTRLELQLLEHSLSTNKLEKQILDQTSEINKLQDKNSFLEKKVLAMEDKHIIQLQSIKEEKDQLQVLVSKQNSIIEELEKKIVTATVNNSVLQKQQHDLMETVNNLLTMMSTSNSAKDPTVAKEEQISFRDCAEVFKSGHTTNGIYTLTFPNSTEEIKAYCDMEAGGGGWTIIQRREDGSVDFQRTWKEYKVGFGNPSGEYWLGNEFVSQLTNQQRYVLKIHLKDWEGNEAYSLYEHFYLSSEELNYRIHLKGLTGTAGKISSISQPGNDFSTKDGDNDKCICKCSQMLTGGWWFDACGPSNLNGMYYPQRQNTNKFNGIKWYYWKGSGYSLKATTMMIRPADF
Test: competitive ELISA: hTie2-Fc coated, 400 ng/ml FLAG-hAng2 plus scFv, anti-FLAG-HRP

binder	IC50
SAIT-ANG-2-AB-7-C9 (scFv form) (scFv, V domains shown, scFv from a phage display library) VH: EVQLLESGGGLVQPGGSLRLSCAASGFTFSNYAMSWVRQAPGKGLEWVSAISSGGGNIYYADSVKGRFTISRDNSKNTLYLQMNSLRAEDTAVYYCAKSGIQPSPPSMSSAYAMDVWGQGTLVTVSS VL: QSVLTQPPSASGTPGQRVTISCSGSSSNIGNNDVYWYQQLPGTAPKLLIYANSHRPSGVPDRFSGSKSGTSASLAISGLRSEDEADYYCGTWDYSLSGYVFGGGTKLTVLG	39.7 nM
SAIT-ANG-2-AB-2-E6 (scFv form) (scFv, V domains shown, scFv from a phage display library, partly purified from E. coli periplasm on Ni-NTA and detected with anti-HA) VH: EVQLLESGGGLVQTGGSLRLSCAASGFTFSDYAMSWVRQAPGKGLEWVSAIYPDSGNKYYADSVKGRFTISRDNSKNTLYLQMNSLRAEDTAVYYCARHSSDPKVKSGYYDDGMDVWGQGTLVAVSS VL: QSVLTQPPSASGTPGQRVTISCSGSSSNIGNNAVNWYQQLPGTAPKLLIYADSNRPSGVPDRFSGSKSGTSASLAISGLRSEDEADYYCGSWDYSLSGYVFGGGTKLTVLG	18.9 nM
SAIT-ANG-2-AB-3-D3 (scFv form) (scFv, V domains shown, scFv from a phage display library) VH: EVQLLESGGGLVQPGGSLRLSCAASGFTFSDYDMSWVRQAPGKGLEWVSGISSDDGNTYYADSVKGRFTISRDNSKNTLYLQMNSLRAEDTAVYYCARPTIDKYTLRGYYSYGMDVWGQGTLVTVSS VL: QSVLTQPPSASGTPGQRVTISCTGSSSNIGSNYVSWYQQLPGTAPKLLIYSDNKRPSGVPDRFSGSKSGTSASLAISGLRSEDEADYYCGTWDDSLNGYVFGGGTKLTVLG	9.9 nM
SAIT-ANG-2-AB-8-A5 (scFv form) (scFv, V domains shown, scFv from a phage display library) VH: EVQLLESGGGLVQPGGSLRLSCAASGFTFSDYYMSWVRQAPGKGLEWVSGIYPSGGSTYYADSVKGRFTISRDNSKNTLYLQMNSLRAEDTAVYYCARDPSTLTYAGFDYWGQGTLVTVSS VL: QSVLTQPPSASGTPGQRVTISCSGSSSNIGNNYVTWYQQLPGTAPKLLIYADSHRPSGVPDRFSGSKSGTSASLAISGLRSEDEADYYCATWDYSLSGYVFGGGTKLTVLG	36.3 nM

All values here come from patent US20150152192A1.
